# target: HIV-1 protease (Human immunodeficiency virus type 1 group M subtype B, UniProt P04585)
# assay notes: biochemical
# applied conditions: Table II; enzyme HIV-1; DOSE 10.000 (unit not given)
Please go through the items and note down their PROTEASE % INHIB..
One number for each entry, in %.

Please review the following examples before continuing.
molecule	PROTEASE % INHIB. (%)
CCC[C@@]1(CCc2ccccc2)CC(O)=C([C@H](CC)c2cccc(NS(=O)(=O)c3ccc(N)cn3)c2)C(=O)O1 (single isomer, unassigned) [Example 315]	100.2
Cn1cnc(S(=O)(=O)Nc2cccc(C(C3=C(O)CC(CCc4ccccc4)(CCc4ccccc4)OC3=O)C(C)(C)C)c2)c1 (stereo not drawn) [Example 343]	60.56
Cn1cnc(S(=O)(=O)Nc2cccc(C(C3=C(O)CC(CCc4ccccc4)(CCC(F)(F)F)OC3=O)C(C)(C)C)c2)c1 (single isomer, unassigned) [Example 276]	90.97
CC(C)(C)C(C1=C(O)CC(CCc2ccccc2)(CCc2ccccc2)OC1=O)c1cccc(NS(=O)(=O)c2ccc(N)cn2)c1 (single isomer, unassigned) [Example 355]	46.66

Could you tell me PROTEASE % INHIB. for each of these molecules? They are listed below.
1. Cn1cnc(S(=O)(=O)Nc2cccc(C(C3=C(O)CC(CCc4ccccc4)(CCC(F)(F)F)OC3=O)C(C)(C)C)c2)c1 (single isomer, unassigned) [Example 270]
2. CCCC1(CCc2ccccc2)CC(O)=C(C(c2cccc(NS(=O)(=O)c3cn(C)cn3)c2)C(C)(C)C)C(=O)O1 (single isomer, unassigned) [Example 307]

Ans:
1. 94.57
2. 83.49

====

Please go through the items and note down their PROTEASE % INHIB..
# target: HIV-1 protease (Human immunodeficiency virus type 1 group M subtype B, UniProt P04585)
# assay notes: biochemical
# applied conditions: Table II; enzyme HIV-1; DOSE 1.100 (unit not given)
Answers are plain numbers, in %.

compound	unit of measurement	PROTEASE % INHIB.
CC(C)(C)C(C1=C(O)CC(CCc2ccccc2)(CCc2ccccc2)OC1=O)c1cccc(NS(=O)(=O)c2ccc(N)cn2)c1 (single isomer, unassigned) [Example 356]	%	90.19
CCC[C@@]1(CCc2ccc(F)cc2)CC(O)=C([C@@H](c2cccc(NS(=O)(=O)c3ccc(N)cn3)c2)C(C)(C)C)C(=O)O1 (single isomer, unassigned) [Example 317]	%	98.45
CCC[C@]1(CCc2ccc(F)cc2)CC(O)=C([C@H](c2cccc(NS(=O)(=O)c3ccc(C#N)cn3)c2)C(C)(C)C)C(=O)O1 (single isomer, unassigned) [Example 348]	%	89.84
CCCC1(CCc2ccc(F)cc2)CC(O)=C(C(c2cccc(NS(=O)(=O)c3ccc(C#N)cc3)c2)C(C)(C)C)C(=O)O1 (stereo not drawn) [Example 328]	%	95.45
CCC(C1=C(O)CC(CC(C)C)(CC(C)C)OC1=O)c1cccc(NS(=O)(=O)c2ccc(C#N)cn2)c1 (racemic) [Example 304]	%	96.47
CCC[C@@]1(CCc2ccc(F)cc2)CC(O)=C([C@H](c2cccc(NS(=O)(=O)c3cn(C)cn3)c2)C(C)(C)C)C(=O)O1 (single isomer, unassigned) [Example 351]	%	25.4
CCC(C1=C(O)C2CCCCC2OC1=O)c1cccc(NS(=O)(=O)c2ccc(C#N)cn2)c1 (stereo not drawn) [Example 370]	%	102.89
Nc1ccc(S(=O)(=O)Nc2cccc(CC3=C(O)CC(CCc4ccccc4)(CCc4ccccc4)OC3=O)c2)nc1 [Example 354]	%	26.79
CCC(C1=C(O)CC(CCc2ccccc2)(CCc2ccccc2)OC1=O)c1cccc(NS(=O)(=O)c2cn(C)cn2)c1 (stereo not drawn) [Example 330]	%	93.66
CCC[C@@]1(CCc2ccc(F)cc2)CC(O)=C([C@@H](c2cccc(NS(=O)(=O)c3ccc(N)cn3)c2)C(C)(C)C)C(=O)O1 (single isomer, unassigned) [Example 316]	%	100.32

Could you tell me PROTEASE % INHIB. for each of these compounds? They are listed below.
1. CCC[C@]1(CCc2ccc(F)cc2)CC(O)=C([C@H](c2cccc(NS(=O)(=O)c3cn(C)cn3)c2)C(C)(C)C)C(=O)O1 (single isomer, unassigned) [Example 352]
2. CCCC1(CCc2ccccc2)CC(O)=C(C(c2cccc(NS(=O)(=O)c3ccc(C#N)cn3)c2)C2CC2)C(=O)O1 (stereo not drawn) [Example 311]

Ans:
1: 47.78; 2: 101.8
